Source of measurements: the domain aggregation screens of Martell et al. (2025)

- EXPERIMENT SUMMARY: soluble fraction after stress (log2 fold change); higher = more stays soluble; pooled small domains, quantitative proteomics;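 further: 20 min heating vs room temperature control held 20 min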
- PARTICULARS: stress: 75 degC
VALUE KIND: soluble fraction (log2)

                                    sequence  readout_number
 0  HMLHSEDATVVRQAIPLLERHVDAATVAVARRNLAQLEQFGRYPRRNQALGRISNPAENAYLRAER          0.0695
 1  HMEHDTVLSKVFRRLREAHVPLSLDDIYQGLRKTVNNNSEIREKIVTLQERGLVAEILGPKGGKKYVAKPT          -0.693
 2  HMSHPNAPLTPEGRRRLAVLIVEDGWTIRRAAERFQVSPATASKWARRYRAGESLTDRSSRP           -1.85
 3  HMSSYTQEDVRSGILYMAQLKPRNIEEFVSTLAFSKDDIMDNLSFLVDEGFLKFDADTDTYFNPVPL          -0.374
 4  HMKPQIRRHEKITALVREHGFMSVEQLARELEVTPQTIRRDIGILSAENVLRRYHGGAALGD          -0.941
 5  HMQMSDTSMIRDLVLQVLAENPQSIEDFKNGKDRAVGFLVGMVMKKSQGKANPQITNQMIVEELKK          -0.228
 6  HMDNVLGKSGKVIFVNEEINSYGRAFIPGHGEWNIRTKSDQNIHINDGIKVIERDGITLVVEL           -1.26
 7  HMNIQKYFAGREQFIELLEAVGIRTLEQFASADPSTVLPELHQAKRMLKLQTEIPSAPVFREWVNQALS          -0.636
 8  HMILYDDEYKGPRYRYGLHSRPLSPGAVPKGFIIHSDRPHPDFRHGTLDYPVKLPDDRAANFELIFIGEFD           -1.59
 9  HMNYAVTAARRESILNAALEIFGKSGYNGSSVKQVALAVGMTEAGVLHHFGTKSNLLIEVLRV           0.396
10  HMAEELELFHRLISVTGVGPKGALGFLSQLKPQEIILAILSDDVKTLSKAPGVGRKTAQRVILELKDKF           -1.07
11  HMEQYFEDEELNDKFLEFLAMRKRVRKPVQTDRGMKMLLTSLHKLSGGDVGLMKQIIDQSLDNEWKKFVA           -1.14
12  HMVAGHLQEKNGYFYIVLNYTNHEGKRKSKWITTGLTVKGNKKRAQDLLQEARKTFVPDIPT           -2.88
13  HMSTPVPIEGQPTENLNLRDQPSTSGKILTTIPKGKTVTILSEKNANGWYKVSYNGKTGYVSGSYFKVTK           0.916
14  HMNKDEFLNELKSYLSILEDEEQADILEEYTQHIDMKISTGLSEAEAIRDFGNVSELAAQILEAY          -0.465
15  HMRAVEGKRLKRLLRTNLIAIERDQILQYPLRKRPLAIVTRAVRATNPDAVIVNDAGDDVFARALDVLLAS           -1.44
16  HMLTWNQLGLITKPVVFLDGTGYYARLFEAFEHMISTGFVKENYRAMMNRATSVEEAVRIASSPAPKVD         -0.0438

* * *

- EXPERIMENT SUMMARY: soluble fraction after stress (log2 fold change); higher = more stays soluble; pooled small domains, quantitative proteomics
- PARTICULARS: stress: 75 degC
# soluble fraction (log2) >= 0.04 gives y, anything below gives n

>>> print(df.to_string())
                                   sequence  class
0  HMQNVKIKAEVKGEVISPGVYELDEESRIQDLIDASGGFSDKAYYDNINLSMKLKDEMVLVVYDKDKI      n
1  HMTMEFGEFLAKLRKERGYYQKEVAAYLNVTVATISNYEKNVHAPDLDTLVKLADFYDVSTDYLLQRT      n
2  HMPDLSMLDEVLDEYRSQAGSLVTVLQKAQDLYGYLPLTILRHIAEEMNIKPAQVYGVATFYTQFRL      n
3  HMIDEPENLIQEDKMVNIIYDLALLEGVKTFNSSNFQSVKSNDFVYKKYKIDSLQFAKSTQFYASDINR      y
4  HMKELTPEQLQHNWNNLRQFIDVNFSGDRLGGLNKMYDYFEERMMFAPASGKQHYHNAFAGGYVEHVMHV      y
5  HMSSIYVYPNPTANRIYIQADNIKKAELFDLMGRKVRSTNQPQIDISRLSRGNYILQVKTQNNTQSFKIIK      n
6  HMKGKIYFFEEGVDRVGGVERVISTLANEFSKKYKVNVISFYKTRKETFFKYNSDIDITYLSK      y
7  HMVGDMLTQKDSEGLTAYLYQQGIISQREMLLLNGILKDRVLTGMEKGQRDSVRASMVQHLLAMLNMM      n

* * *

- EXPERIMENT SUMMARY: soluble fraction after stress (log2 fold change); higher = more stays soluble; pooled small domains, quantitative proteomics
- PARTICULARS: stress: 75 degC
// reported soluble fraction (log2) per item
VALUE KIND: soluble fraction (log2)

In [3]: df
Out[3]:
                                   sequence               value_kind  readout_number
0  HMEGVTVPDVTRISLDEAEELLTSYGLRFEVADRRANSAFPGNYVIDQAPSAEVIVKPNRKIYLTVNAA  soluble fraction (log2)          -0.238
1  HMGYNDQEVKSNLITLLSTSKTGLSGVEISAQLGINRVTMTKFLNVFAAEGIIKQKNIGNLNLWLVEEGTE  soluble fraction (log2)           -3.44
2  HMKTYGGDNSLHKFDEHHSWMVAKYGPVVKQTINGETKWLKVKKDLTLAQVKKMKLEDVLLPKSQT  soluble fraction (log2)          -0.534
3  HMDRSRAEIDLGHVETAIRTLAEGGMVQEYAIGGRSLKRYKMGELLQLKAELENEINMERRKEKMRQ  soluble fraction (log2)           0.212

* * *

- EXPERIMENT SUMMARY: soluble fraction after stress (log2 fold change); higher = more stays soluble; pooled small domains, quantitative proteomics
- PARTICULARS: stress: 75 degC
VALUE KIND: soluble fraction (log2)

In [3]: df
Out[3]:
                                   sequence  readout_number
0  HMEIESAHAQVLGVREIAASGATQHWIAFRFSDGHQRELLATPSQADVIFRGQQGVVHFAGDRLTGWIPE           0.104
1  HMLLSHTAQREGELLTFLRGELALSSGLVKRLKWQNAFFLDGAPVHTNARVKPGQEITVRIEE           -1.59
2  HMDKNNLLIIYRTNSEGTPYAFSVTPSAKSLDALHKDAKEMLPFLEKSMNNFFSIQIWERAEYLKY          -0.785
3  HMEVPDTIIRLRELVAAMPEQWQKVYRLVFMEGLSKAKAGKKIGISDVRVGQLVKKINAAIAGDETLK           -1.01

* * *

- EXPERIMENT SUMMARY: soluble fraction after stress (log2 fold change); higher = more stays soluble; pooled small domains, quantitative proteomics
- PARTICULARS: stress: 75 degC
Classification field: enter Y for soluble fraction (log2) values not below -0.1, N for values below it.

                                   sequence  class
0  HMDYPFQYFNYSHLRILGVPAQLIKAVRKAPTLDAIEQLSGLSEKTKLWLLELATEPKLEDVLFDPGR      N
1  HMYSKVSFTVSVGMTSERVSASLKALGIIDDSAKFNRYLVSNGYSTRIKVGTVELQAGQSYAEIASKLV      N
2  HMGAAFITSSKDNAINIRQSANTDSKVIETVTNGQILESNEKSGEWHKVTYYDNDIKKSFTGYVHEGQLK      Y
3  HMATPAFEMYKVRRGDTPAGLAKEWGFPDMASFYRINPDARSDWKRGLQLVKPMNEMAVLQATA      N
4  HMLKEGQYSPNHFHWHKMEDIINRGGGTLLIRVYNSLPDEEIDRESDVTVHMDGVTRTVPAGTQLRLE      N
5  HMFDLDIEQIANDLKHGVMPNLYGLSLQDALYLLEAKGIRVKVAGSGSVVNQSIKTGAYVGSGSVLKLEL      N
6  HMTVKKLTINEDNSGRRIDNYLLSIFNSLPRSKIYNIIRKGEVRVNSSRIKPNYRLEQGDLVRIPPNLEFT      Y
7  HMAKNSVLTIELWNSTAFKWRKDTEPYSESMSVDFNRSVRLTDGISIMFSKFGFVPGIQYLIPLQT      N
